Hey, just so you know, these numbers are from paper PMC7305236.

# activation annotations
Biological target: CXCR4 (Homo sapiens, UniProt P61073)
Construct: expressed in transfected cells; host or cells: U87, transient cotransfection of pNBe vectors
Sequence (P61073 whole entry): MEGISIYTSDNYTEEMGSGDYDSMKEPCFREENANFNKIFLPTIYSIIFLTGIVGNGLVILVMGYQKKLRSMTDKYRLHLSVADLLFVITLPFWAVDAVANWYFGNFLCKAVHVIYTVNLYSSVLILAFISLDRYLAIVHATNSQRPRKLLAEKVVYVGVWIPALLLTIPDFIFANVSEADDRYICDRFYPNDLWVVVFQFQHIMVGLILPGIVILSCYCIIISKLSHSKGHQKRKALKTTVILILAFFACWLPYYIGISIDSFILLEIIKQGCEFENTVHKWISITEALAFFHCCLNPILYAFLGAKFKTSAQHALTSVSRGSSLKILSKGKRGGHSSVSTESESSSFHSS
Test: cell-based
Parameters: dose or concentration left out as unconfirmed
Settings: Figure S2a; replicate 2; read-out: CXCR4 activity, ctrl+ = 100
Starred links: 1 amine or outer side, 2 acyl side, 3 side chain; linkers in the order of their positions; H or OH if unused. Non-standard residues stand in square brackets, D forms with d. Residues, ends and D or L forms follow the SMILES beside them. X1 = N[C@@H](Cc1ccccc1)CN(CC(=O)[*:2])[*:1]
attribute-measured: activation (%)

1. CC[C@H](C)[C@H](NC(=O)[C@H](CCCNC(=N)N)NC(=O)[C@H](CCCNC(=N)N)NC(=O)[C@H](CC(C)C)NC(=O)[C@H](Cc1ccccc1)NC(=O)CNC(=O)CNC(=O)[C@@H](N)Cc1ccc(O)cc1)C(=O)N[C@@H](CCCNC(=N)N)C(=O)N1CCC[C@H]1C(=O)N[C@@H](CCCCN)C(=O)N[C@@H](CC(C)C)C(=O)N[C@@H](CCCCN)C(=O)N[C@@H](Cc1c[nH]c2ccccc12)C(=O)N[C@@H](CC(=O)O)C(=O)N[C@@H](CC(N)=O)C(=O)N[C@@H](CCC(N)=O)C(=O)O; -56.8
2. CSCC[C@H](NC(=O)[C@H](Cc1ccccc1)NC(=O)CNC(=O)CNC(=O)[C@@H](N)Cc1ccc(O)cc1)C(=O)N[C@@H](CCCNC(=N)N)C(=O)N[C@@H](CCCNC(=N)N)C(=O)N[C@H](C(N)=O)C(C)C; 14
3. C[C@H](NC(=O)CNC(=O)[C@@H](NC(=O)[C@H](Cc1ccccc1)NC(=O)CNC(=O)CNC(=O)[C@@H](N)Cc1ccccc1)[C@@H](C)O)C(=O)N[C@@H](CCCNC(=N)N)C(=O)N[C@@H](CCCCN)C(=O)N[C@@H](CO)C(=O)N[C@@H](C)C(=O)N[C@@H](CCCNC(=N)N)C(=O)N[C@@H](CCCCN)C(N)=O; -3.76
4. CC[C@H](C)[C@H](NC(=O)[C@H](CCCNC(=N)N)NC(=O)[C@H](CCCNC(=N)N)NC(=O)[C@H](CC(C)C)NC(=O)[C@H](Cc1ccccc1)NC(=O)CNC(=O)CN)C(=O)N[C@@H](CCCNC(=N)N)C(=O)N1CCC[C@H]1C(=O)N[C@@H](CCCCN)C(=O)N[C@@H](CC(C)C)C(=O)N[C@@H](CCCCN)C(=O)N[C@@H](Cc1c[nH]c2ccccc12)C(=O)N[C@@H](CC(=O)O)C(=O)N[C@@H](CC(N)=O)C(=O)N[C@@H](CCC(N)=O)C(=O)O; -26.7
5. C[C@H](NC(=O)CNC(=O)[C@@H](NC(=O)[C@H](Cc1ccccc1)NC(=O)CNC(=O)CNC[C@@H](N)Cc1ccccc1)[C@@H](C)O)C(=O)N[C@@H](CCCNC(=N)N)C(=O)N[C@@H](CCCCN)C(=O)N[C@@H](CO)C(=O)N[C@@H](C)C(=O)N[C@@H](CCCNC(=N)N)C(=O)N[C@@H](CCCCN)C(N)=O [FG Nociceptin 1-13] (H-[X1]GFTGARKSARK-NH2); -4.91
6. CC(C)C[C@H](NC(=O)[C@H](Cc1ccccc1)NC(=O)CNC(=O)CNC(=O)[C@@H](N)Cc1ccc(O)cc1)C(=O)N[C@@H](CCCN=C(N)N)C(=O)N[C@@H](CCCN=C(N)N)C(=O)N[C@@H](CCC(N)=O)C(=O)N[C@@H](Cc1ccccc1)C(=O)N[C@@H](CCCCN)C(=O)N[C@H](C(=O)N[C@H](C(=O)N[C@H](C(=O)O)[C@@H](C)O)C(C)C)C(C)C; 7.15
7. NC(=O)[C@H](Cc1ccccc1)NC(=O)[C@H](Cc1c[nH]c2ccccc12)NC(=O)[C@@H]1CCCN1C(=O)[C@@H](N)Cc1ccc(O)cc1 [Endomorphin-1]; 16.8
8. CC(C)C[C@H](NC(=O)[C@H](CCCCN)NC(=O)[C@H](CCCN=C(N)N)NC(=O)[C@H](C)NC(=O)[C@H](CO)NC(=O)[C@H](CCCCN)NC(=O)[C@H](CCCN=C(N)N)NC(=O)[C@H](C)NC(=O)CNC(=O)[C@@H](NC(=O)[C@H](Cc1ccccc1)NC(=O)CNC(=O)CNC(=O)[C@@H](N)Cc1ccccc1)[C@@H](C)O)C(=O)N[C@@H](C)C(=O)N[C@@H](CC(N)=O)C(=O)N[C@@H](CCC(N)=O)C(=O)O; -19.8
